Where do these numbers come from? They come from PubChem BioAssay AID330.

Recorded measurements of T/C, one per entry
Test system: P388 leukemia ip, CD2F1 mice, survival T/C
Method: NCI In Vivo Anticancer Drug Screen. Data for tumor model P388 Leukemia (intraperitoneal) in CD2F1 (CDF1) mice
Particulars: endpoint: median survival time; dose: 200.0 mg/kg/injection; schedule: Q01DX009 (ip); vehicle: Klucel (hydroxypropylcellulose) (HPC); higher = longer survival
Inconclusive results and toxic doses are left out.

What value of T/C has been reported for the following compound? COC1C(Br)C(C)(OC)c2ccccc2N1C#N (stereo unspecified)
100 % of control

----------
Test system: P388 leukemia ip, CD2F1 mice, survival T/C
Method: NCI In Vivo Anticancer Drug Screen. Data for tumor model P388 Leukemia (intraperitoneal) in CD2F1 (CDF1) mice
Particulars: endpoint: median survival time; dose: 100.0 mg/kg/injection; schedule: Q01DX005 (ip); vehicle: saline; higher = longer survival
Inconclusive results and toxic doses are left out.
Quantity Name: T/C

Molecule	T/C
CC(=O)/C(=C\C=C\c1ccccc1)C(=O)CCN(C)C	109 % of control
CCN(CC)Cc1ccccc1CO	106 % of control
CCCCc1cc2ccccc2c(OCCN(C)C)n1	115 % of control
CC(C)C(=O)NCCCCCN1CCCCC1	99 % of control

Look up T/C: `CC(C)Sc1ncn[nH]1`
100 % of control

// lookup T/C for `CCC1(CC)C(=O)NC(=O)NC1(OC)OC`
106 % of control

Looking for the measured T/C of O=C1NC(CCO)C(=O)NC1CCO (stereo unspecified) , can you help?
100 % of control

Need T/C of `COC(=O)C(Cc1ccccc1C(N)=O)(OC)OC` , thanks.
99 % of control

Query: T/C; subject: `S[C@@H]1CCCN1`
102 % of control

Which value of T/C has been reported for CCCCNC(=O)C(C)O (stereo unspecified) in the records?
99 % of control

# lookup: T/C of CC(CO)CC(C)(C)C (stereo unspecified)
104 % of control

Consider the molecule `C[CH2][Ge]([c]1ccccc1)[c]1ccccc1.C[CH2][Ge]([c]1ccccc1)[c]1ccccc1.c1cc[c]([Ge]([O][Ge]([c]2ccccc2)[c]2ccccc2)[c]2ccccc2)cc1` and give its measured T/C.
91 % of control

Recorded T/C for `O=C(Nc1cccnc1)c1ccc([N+](=O)[O-])s1` , please?
92 % of control

Return reported T/C; argument: CCOP(=O)(OCC)C(N)Cc1c[nH]c2ccccc12 (stereo unspecified)
104 % of control

Consider the molecule `COc1ccc(Cc2ccc3c(c2)OCO3)cc1C` and give its measured T/C.
104 % of control

Bench note: what T/C did Cc1ccc(SC(F)(F)C(F)C(F)(F)F)cc1 (stereo unspecified) show?
101 % of control

----------
Tested on: P388 leukemia ip, CD2F1 mice, survival T/C
Method: NCI In Vivo Anticancer Drug Screen. Data for tumor model P388 Leukemia (intraperitoneal) in CD2F1 (CDF1) mice
Particulars: endpoint: median survival time; dose: 12.5 mg/kg/injection; schedule: Q01DX009 (ip); vehicle: Klucel (hydroxypropylcellulose) (HPC); higher = longer survival
Inconclusive results and toxic doses are left out.
Quantity Name: T/C

Compound	T/C
C[N+](C)(Cc1ccc(Br)cc1)C1c2ccccc2-c2ccccc21	107 % of control
O=C(c1ccc2cc(Cl)c(Cl)cc2c1)C(Cl)Cl	88 % of control
CCOC(=O)CC1CC2c3cc(OC)c(OC)cc3CCN2CC1CC (stereo unspecified)	108 % of control
ClCCN(CCCl)c1ccc(/C=N/Nc2c3c(nc4ccccc24)CCCC3)cc1	90 % of control
COc1ccccc1N1CCCSC1=Nc1ccccc1	105 % of control
COc1ccc(N=C([Se])CCC(C)C)cc1	106 % of control

Return reported T/C; argument: `CCCCOS(=O)(=O)c1ccc([N+](C)(C)C)cc1`
100 % of control

I would be grateful if you could share the reported T/C for `Cc1ccc(S(=O)(=O)N/N=C/c2ccccc2Cl)cc1` .
98 % of control
